Below, each of the molecules is paired with its reported TGI value.
system: SF-268 CNS; experiment: NCI tumour cell line growth inhibition, 48 h
valueType: TGI

> print(dat)
                                    molecule  measuredresult
 1  O=C(O)CSC1=NNC2(C(=O)N1)c1ccccc1-c1ccccc12         > 10 µM
 2  O=C(O)Cn1c2c(c3c1-c1ccccc1C3=O)C(=O)CCC2        > 100 µM
 3                       CC(=O)/C=C/c1ccccc1        > 100 µM
 4  CC(/C=C/C(=O)c1sc(C(N)=S)nc1C)=C\c1ccccc1        > 100 µM
 5  CN1CCN(C(=O)c2ccc(NC(=O)Nc3ccc(-c4nc(N5CCOCC5)c5cccn5n4)cc3)cc2)CC1           12 µM
 6  COc1ccc(/C=c2\[nH]c3nc(=O)c(N4CCCCC4)c(N)n3c2=O)cc1        > 100 µM
 7  O=Nc1c(-c2c(O)[nH]c3ccc(I)cc23)[nH]c2ccccc12         25.9 µM
 8  O=C1OCC2=C1C(c1cccc(C(F)(F)F)c1)c1cc3c(cc1N2CCO)OCCO3 (centres undefined)       > 33.3 µM
 9  COc1c(OC)c(OC)c2c(=O)cc(-c3ccc(OC(C)C)cc3)oc2c1OC       > 51.8 µM
10  CCC1CCCCN1CC(C(C)=O)C(c1ccccc1)c1c(O)c2ccccc2oc1=O (centres undefined)        > 100 µM
11                C=CC(C)(C)/C=C/c1ccc(O)cc1        > 100 µM
12  CN1CCC(c2c(O)cc(O)c3c(=O)cc(-c4ccccc4Cl)oc23)C(O)C1 (centres undefined)        0.238 µM
13                Cc1cc2nc3ccccc3n2c2ccccc12         > 10 µM
14                  Cc1nc2ccc(Cl)cc2c2c1CCO2        > 100 µM

----------
test system: OVCAR-3 ovarian; test: NCI tumour cell line growth inhibition, 48 h; in the data active means GI50 below about 0.43 µM; inactive means the rest
Possible outcomes: true = active, false = inactive

> print(dat)
                                   molecule  categorylabel
1  CN1CCC(c2c(O)cc(O)c3c(=O)cc(-c4ccccc4Cl)oc23)C(O)C1 (stereo not given)           true
2  C=C(C(=O)OC)[C@@H]1CC2OC1C(=O)C(C)CCC/C(C)=C/CC[C@@]2(C)O (stereo not given in full)          false
3  N#CC1=C(N)NC(N2CCOCC2)=NC12Nc1ccccc1O2 (stereo not given)          false
4  COc1cc(/C=C/C(=O)CC(=O)/C=C/c2cc(OC)c(O)c(OC)c2)cc(OC)c1O          false
5  Fc1ccc2c(c1)C1=C(CCC2)C(c2ccc(Cl)cc2)NC(=S)N1 (stereo not given)          false

----------
system: OVCAR-3 ovarian; experiment: NCI tumour cell line growth inhibition, 48 h
valueType: TGI

> print(dat)
                                    molecule  measuredresult
 1  S=C1C(=Nc2ccccc2)N(c2ccccc2)/C(=N\c2cccc[n+]2Cc2ccccc2)N1c1ccccc1         54.3 µM
 2    O=c1[nH]cc(N=Cc2cc(Cl)ccc2O)c(=O)[nH]1        > 100 µM
 3  O=Nc1c(-c2c(O)[nH]c3ccc(I)cc23)[nH]c2ccccc12       > 57.3 µM
 4                C=CC(C)(C)/C=C/c1ccc(O)cc1        > 100 µM
 5  CCN(CC)CCCNCc1cc(-c2ccccc2)nc2cc(Cl)ccc12         20.5 µM
 6  CN1CCN(CCCOc2ccc3nc(Nc4ccc(F)c(F)c4)ccc3c2)CC1         6.37 µM
 7  O=C1NC(=O)C(=Cc2cn(Cc3ccccc3)c3ccccc23)C(=O)N1         19.4 µM
 8  O=C1C=CC(=O)c2c(O)c(N3CCOCC3)c(Cl)c(O)c21         1.31 µM
 9  CC(/C=C/C(=O)c1sc(C(N)=S)nc1C)=C\c1ccccc1        > 100 µM
10                  c1ccc2c(Nc3ncco3)cccc2c1         > 10 µM
11  CCOC(=O)c1cc2c3c(c(C(C)=O)c(OC)c2[nH]1)N(C(=O)CC)CC3         34.4 µM
12  CC1=NN(c2ccccc2)C(=O)C12[C@H](c1ccccc1)C2(C#N)C#N (some centres not stated)         19.5 µM
13     Cc1nn(C)c2ncnc(N/N=C/c3cccc(O)c3O)c12        > 100 µM
14  CCCC(O)c1cn(-c2cccc(S(=O)(=O)O)c2)nn1 (configuration not stated)        > 100 µM
15         COc1ccc(/C=C2\CCCc3ccccc3C2=O)cc1        0.422 µM
16         C/C(=N\Nc1nc2ccccc2[nH]1)c1ncccn1          6.7 µM
17               O=c1cc[nH]cc1-c1c[nH]ccc1=O        > 100 µM
18  COc1cccc(NC(=O)CC(=O)n2nc(-c3ccccc3)c(N=Nc3ccc(Cl)cc3)c2-c2ccccc2)c1         99.1 µM
19   Cn1c2ccc(Cl)cc2c2ccc3c(c21)C(=O)C=CC3=O         > 10 µM
20        O=c1cc(N2CCOCC2)n2c(ccc3ccccc32)n1        > 100 µM
21  COc1ccc(-n2c(N)c(C#N)c(C#N)c2-c2ccco2)cc1        > 100 µM
22  O=C(Nc1ccc(-n2cc(-c3ccncc3)c(-c3ccc(O)c(Cl)c3)n2)cc1)c1ccc(Cl)c(C(F)(F)F)c1         7.33 µM
23  CCC1=C(C[C@H]2NCCc3cc(OC)c(OC)cc32)C[C@H]2c3cc(OC)c(OC)cc3CCN2C1        0.158 µM
24  COc1ccc(CSC2=C(C#N)C(=O)NC3(CCCCC3)S2)cc1       > 82.1 µM
25  O=C1OC(=O)C23CSCC12C1C=CC3O1 (configuration not stated)        > 100 µM
26  COc1ccc(Nc2ncnc3ccc(-c4cncc(NS(C)(=O)=O)c4)cc23)cc1Cl         4.78 µM
27  O=S(=O)(/N=S(/Nc1ccccc1)C(F)(F)Cl)c1ccccc1 (configuration not stated)        > 100 µM
28  C=C(C(=O)OC)[C@@H]1CC2OC1C(=O)C(C)CCC/C(C)=C/CC[C@@]2(C)O (some centres not stated)         48.4 µM
29  Cc1ccccc1-n1c(=S)[nH]c2c(sc(=O)n2-c2ccccc2C)c1=O        > 100 µM
30  Cc1cc(Cl)cc2c1NC(=O)C2(O)CC(=O)c1ccc(Br)cc1 (configuration not stated)        > 100 µM
31  Oc1ccc2ccccc2c1OCc1nnc(CCCCCCCCc2nnc(COc3c(O)ccc4ccccc34)n2Nc2ccccc2)n1Nc1ccccc1         32.1 µM
32  Oc1ccc(Cl)cc1-c1cc(-c2ccccc2)nc(=S)[nH]1        > 100 µM

Origin of the recorded values: PubChem BioAssay (NCI)
